Tested on: Poa annua
assay-remarks: Screen of short-chain organic acids for effects on roots, agarose medium, seeds inoculated with Pseudomonas strain SLB4
Format: in vivo
condition-parameters: organic acids 0-1 mM in 0.7% agarose; 7 days
endpoint-name: Inhibitory Activity On Hair Length

Sample records with Inhibitory Activity On Hair Length:
# smiles-string, Inhibitory Activity On Hair Length
measured = [
    ("O=C(O)C(=O)O", "Yes"),
    ("O=C(O)[C@]1(O)C[C@@H](O)[C@@H](O)[C@H](O)C1", "No"),
    ("CCC(=O)O", "Yes"),
    ("CC(=O)O", "No"),
    ("CCCCCC(=O)O", "Yes"),
]

Reported Inhibitory Activity On Hair Length of "O=C(O)CC(O)(CC(=O)O)C(=O)O" : Yes

Reported Inhibitory Activity On Hair Length of "CCCC(=O)O" : Yes

Reported Inhibitory Activity On Hair Length of "O=C(O)c1ccccc1" : Yes
